- ASSAY_SYSTEM: T1, G1 APOL1 (Homo sapiens, UniProt O14791, I384M/S342G)
- T1 construct: expressed in transfected cells
- T1 sequence (O14791 28-398 S342G/I384M): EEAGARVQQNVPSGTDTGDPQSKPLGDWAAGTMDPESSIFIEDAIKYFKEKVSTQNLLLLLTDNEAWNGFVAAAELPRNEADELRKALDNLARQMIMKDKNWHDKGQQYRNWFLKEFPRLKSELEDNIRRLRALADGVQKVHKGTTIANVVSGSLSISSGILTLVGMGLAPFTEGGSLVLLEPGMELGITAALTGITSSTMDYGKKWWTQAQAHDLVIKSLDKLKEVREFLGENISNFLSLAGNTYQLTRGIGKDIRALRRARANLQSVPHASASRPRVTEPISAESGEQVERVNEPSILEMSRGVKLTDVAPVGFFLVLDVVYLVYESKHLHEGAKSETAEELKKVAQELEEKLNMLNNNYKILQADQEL
- ASSAY_COMMENT: Acute APOL1 Thallium Assay with inducible stable clones of HEK 293 cells
- Format: cell-based
- TEST_CONTEXT: HEK 293 T-Rex inducible stable clone expressing G1 APOL1; read-out: Thallium Assay (IC50)
- Description: Acute APOL1 Thallium Assay with Inducible Stable Clones of HEK 293 Cells Apolipoprotein L1 (APOL1) proteins form potassium-permeable cation pores in the plasma membrane. APOL1 risk variants (G1 and G2) induce greater potassium flux than G0 in HEK293 cells. […] The increase of fluorescence in the assay represents the influx of T1+ into the cell specifically through the potassium channel (i.e. through APOL1 pores), providing a functional measurement of potassium channel/pore activity. […]
Below is a list of entries, each paired with its recorded IC50 value.

Examples from the recorded data:
{"columns": ["COMPOUND", "ASSAY_SYSTEM", "IC50"],
 "data": [
  ["CC(C)(C)OC(=O)NCC(=O)N[C@H]1C[C@@H](c2c(-c3ccc(F)cc3)[nH]c3c(F)cc(F)cc32)C1", "T1, G1 APOL1 (Homo sapiens, UniProt O14791, I384M/S342G)", "> 1000 nM"],
  ["NC(=O)CC(=O)NC[C@H]1C[C@@H](c2c(-c3ccc(F)cc3)[nH]c3c(F)cc(F)cc32)C1", "T1, G1 APOL1 (Homo sapiens, UniProt O14791, I384M/S342G)", "> 1000 nM"],
  ["CC(C)(O)CC(=O)NC1CC(c2c(-c3ccc(F)cc3)[nH]c3c(F)cc(F)cc23)C1 (centres unmarked)", "T1, G1 APOL1 (Homo sapiens, UniProt O14791, I384M/S342G)", "250 to 1000 nM"]
]}

Exam item: # get_value(readout='IC50', item= CC(C)(O)C(=O)N[C@H]1C[C@H](c2c(-c3ccc(F)cc3)[nH]c3c(F)cc(F)cc32)C1 )
Marked response: < 250 nM

Exam item: Tell me the measured IC50 of Cc1nccn1CC(=O)N[C@H]1C[C@@H](c2c(-c3ccc(F)cc3)[nH]c3c(F)cc(F)cc32)C1 , please.
Marked response: > 1000 nM

Exam item: What does the data say about its IC50? Entry: NCC(=O)NC[C@H]1C[C@H](c2c(-c3ccc(F)cc3)[nH]c3c(F)cc(F)cc32)C1
Marked response: < 250 nM

Exam item: For COC1(CC(=O)N[C@H]2C[C@@H](c3c(-c4ccc(F)cc4)[nH]c4c(F)cc(F)cc43)C2)CCC1 , what is its reported IC50?
Marked response: > 1000 nM

Exam item: Data request, read-out IC50, for Cn1ccnc1S(=O)(=O)N[C@H]1C[C@H](c2c(-c3ccc(F)cc3)[nH]c3c(F)cc(F)cc32)C1
Marked response: > 1000 nM

Exam item: Query (compound): CC(C(=O)N[C@H]1C[C@H](c2c(-c3ccc(F)cc3)[nH]c3c(F)cc(F)cc32)C1)n1ccnc1 (mixture of isomers) ; field requested: IC50
Marked response: > 1000 nM

Exam item: Which measured IC50 value corresponds to NCC1CC(c2c(-c3ccc(OC(F)F)cc3)[nH]c3c(F)cc(F)cc23)C1 (centres unmarked) ?
Marked response: < 250 nM

Exam item: I am curious: what IC50 value has been reported for NCC1CC(c2c(-c3ccc(F)cc3)[nH]c3c(F)cc(F)cc23)C1 (mixture of isomers) ?
Marked response: < 250 nM

Exam item: # get_value(readout='IC50', item= NC12CC(NCC3CC(c4c(-c5ccc(F)cc5)[nH]c5c(F)cc(F)cc45)C3)(C1)C2 (centres unmarked) )
Marked response: 250 to 1000 nM

Exam item: Look up IC50: O=C1C=C(NC[C@H]2C[C@H](c3c(-c4ccc(F)cc4)[nH]c4c(F)cc(F)cc43)C2)C(=O)N1
Marked response: > 1000 nM

Exam item: Quick check: IC50 of CNC1(C(=O)N[C@H]2C[C@H](c3c(-c4ccc(F)cc4)[nH]c4c(F)cc(F)cc43)C2)CC1 ?
Marked response: 250 to 1000 nM

Exam item: Please look up its IC50: CC(=O)NC[C@]1(O)C[C@@H](c2c(-c3ccc(F)cc3)[nH]c3c(F)cc(F)cc32)C1
Marked response: > 1000 nM

Exam item: Could you tell me which IC50 is on file for O=C1CCC[C@@H](C(=O)NC[C@H]2C[C@H](c3c(-c4ccc(F)cc4)[nH]c4c(F)cc(F)cc43)C2)N1 ?
Marked response: > 1000 nM

Exam item: Consider the compound NC(=O)C1(C(=O)NC[C@H]2C[C@H](c3c(-c4ccc(F)cc4)[nH]c4c(F)cc(F)cc43)C2)CC1 and give its measured IC50.
Marked response: > 1000 nM

Exam item: Find the recorded IC50 belonging to N#CCS(=O)(=O)N[C@H]1C[C@@H](c2c(-c3ccc(F)cc3)[nH]c3c(F)cc(F)cc32)C1 and report it.
Marked response: > 1000 nM

Exam item: Quick one: IC50 for Cn1cc(S(=O)(=O)N[C@H]2C[C@@H](c3c(-c4ccc(F)cc4)[nH]c4c(F)cc(F)cc43)C2)cn1 ?
Marked response: > 1000 nM

Exam item: What IC50 value was documented for this compound, O=C(CC1CS(=O)(=O)C1)NC[C@H]1C[C@@H](c2c(-c3ccc(F)cc3)[nH]c3c(F)cc(F)cc32)C1 ?
Marked response: > 1000 nM

Exam item: Need IC50 of Cc1ccc(-c2[nH]c3c(F)cc(F)cc3c2C2CC(CN)C2)cc1 (centres unmarked) , thanks.
Marked response: < 250 nM

Exam item: Form field: reported IC50 of O=C1NCCC1C(=O)NC[C@H]1C[C@@H](c2c(-c3ccc(F)cc3)[nH]c3c(F)cc(F)cc32)C1 (some centres unmarked)
Marked response: > 1000 nM

Exam item: Requested field: IC50. Item: CC[C@@H](CO)NCC1CC(c2c(-c3ccc(F)cc3)[nH]c3c(F)cc(F)cc23)C1 (some centres unmarked)
Marked response: > 1000 nM
